Cited source: ChEMBL document CHEMBL5154936

target: CYP2D6 (Homo sapiens, UniProt P10635); assay: Inhibition of CYP2D6 (unknown origin) at 20 uM; assay type: ADME
Sequence (P10635 whole entry): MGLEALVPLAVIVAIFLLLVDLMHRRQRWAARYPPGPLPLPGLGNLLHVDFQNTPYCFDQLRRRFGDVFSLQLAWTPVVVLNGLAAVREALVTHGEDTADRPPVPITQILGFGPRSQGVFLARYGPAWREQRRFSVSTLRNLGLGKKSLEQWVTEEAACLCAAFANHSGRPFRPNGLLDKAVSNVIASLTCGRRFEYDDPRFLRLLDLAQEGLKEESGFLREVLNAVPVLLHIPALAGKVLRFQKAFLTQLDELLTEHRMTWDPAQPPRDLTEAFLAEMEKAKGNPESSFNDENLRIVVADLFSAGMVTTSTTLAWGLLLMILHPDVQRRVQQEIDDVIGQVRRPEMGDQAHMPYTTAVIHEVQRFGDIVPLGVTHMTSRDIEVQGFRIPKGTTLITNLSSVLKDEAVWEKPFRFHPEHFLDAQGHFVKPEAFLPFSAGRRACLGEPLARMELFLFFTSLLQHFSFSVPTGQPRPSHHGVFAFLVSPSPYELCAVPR
experimental_endpoint: inhibition at 20 µM (%)

>  <chemical_structure>
C[C@H](NC(=O)c1c(Cc2cccc(C(F)(F)F)c2)sc2c1CCOC2)c1ccc(C(=O)O)cc1

>  <experimental_endpoint>
inhibition at 20 µM

>  <unit_abbrev>
%

>  <value>
72

$$$$
>  <chemical_structure>
C[C@H](NC(=O)c1c(C(F)F)nn(C)c1Oc1cccc(C(F)(F)F)c1)c1ccc(C(=O)O)cc1

>  <experimental_endpoint>
inhibition at 20 µM

>  <unit_abbrev>
%

>  <value>
65

$$$$
>  <chemical_structure>
O=C(O)c1ccc(CNC(=O)c2c(Cc3ccc(F)cc3)sc3c2CCOC3)cc1

>  <experimental_endpoint>
inhibition at 20 µM

>  <unit_abbrev>
%

>  <value>
65

$$$$
>  <chemical_structure>
C[C@H](NC(=O)c1c(CCc2ccc(F)cc2)sc2c1CCOC2)c1ccc(C(=O)O)cc1

>  <experimental_endpoint>
inhibition at 20 µM

>  <unit_abbrev>
%

>  <value>
76

$$$$
>  <chemical_structure>
C[C@H](NC(=O)c1c(Cc2ccc(C(F)(F)F)cc2)sc2c1CCOC2)c1ccc(C(=O)O)cc1

>  <experimental_endpoint>
inhibition at 20 µM

>  <unit_abbrev>
%

>  <value>
62

$$$$
